tested on: HL-60(TB) leukemia; assay: NCI-60 one-dose screen, 48 h (100 = growth as untreated, 0 = no growth, -100 = all killed); details: 10 µM unless noted
About 83,000 compounds went through this panel and 20% of them were active in at least one assay; those are over-represented in the sample as a whole. Activity calls are given as the source filed them. The calls were made as follows: active = growth percent below 10; inactive = the rest.

MOLECULE	growth
COc1ccccc1OCC(O)CO (stereo not drawn)	74.1% (inactive)
C#Cc1ccc(-n2c(/C=C/c3ccc4ccccc4n3)nc3ncccc3c2=O)cc1	-34.6% (active)
CCc1ccc(-c2cn3ccnc3c(-c3ccc4ncn(Cc5ccccc5)c4c3)n2)cc1	60.4% (inactive)

====

system: HL-60(TB) leukemia; assay: NCI-60 one-dose screen, 48 h (100 = growth as untreated, 0 = no growth, -100 = all killed); conditions: 10 µM unless noted
About 83,000 compounds went through this panel and 20% of them were active in at least one assay; those are over-represented in the sample as a whole. Activity calls are given as the source filed them. The calls were made as follows: active = growth percent below 10; inactive = the rest.
PARAMETER MEASURED: growth

COMPOUND	ASSAY TARGET	PARAMETER MEASURED	RESULT
COc1ccc(/C=N/Nc2cc(=O)[nH]c3ccc(C)cc23)cc1	HL-60(TB) leukemia	growth	94.2% (inactive)
NC(=O)c1cccc(N2Cc3ccccc3OC3=C2C(=O)c2c(O)ccc(O)c2C3=O)c1	HL-60(TB) leukemia	growth	-46.3% (active)
Cc1cc(N2CCCCC2)nc(N(CCNc2ccnc3cc(Cl)ccc23)Cc2ccccn2)n1	HL-60(TB) leukemia	growth	41.6% (inactive)
CCOC(=O)c1ccccc1-c1c2ccc(=[N+](C)C)cc-2oc2cc(N(C)C)ccc12	HL-60(TB) leukemia	growth	-14.3% (active)
Cc1ccc(/C=C2\CNC/C(=C\c3ccc(C)cc3)C2=O)cc1	HL-60(TB) leukemia	growth	-29.1% (active)
Cn1nc(N)c2cc([C@@H]3Nc4ccc5[nH]ncc5c4[C@H]4C5CCC(C5)[C@@H]34)ccc21 (some centres not stated)	HL-60(TB) leukemia	growth	-16.6% (active)
N#C/C(=C\c1ccccc1Cl)c1cc2ccccc2[nH]1	HL-60(TB) leukemia	growth	98.8% (inactive)
c1csc(-c2cc(-c3cc(-c4cccs4)[nH]n3)n[nH]2)c1	HL-60(TB) leukemia	growth	87.1% (inactive)
CC12OC(CC(O)C1O)n1c3ccccc3c3c4c(c5c6ccccc6n2c5c31)C(=O)N(CCN1CCOCC1)C4=O (configuration not stated)	HL-60(TB) leukemia	growth	7.54% (active)
CCC12CCC3c4ccc(O)cc4CCC3C1CC(O)C2O (configuration not stated)	HL-60(TB) leukemia	growth	63.1% (inactive)
O=C1CN(CCN2CC(=O)N(Cc3ccccc3)C(=O)C2)CC(=O)N1Cc1ccccc1	HL-60(TB) leukemia	growth	97.7% (inactive)
COc1ccccc1CNc1nc(N)nc2[nH]c3ccc(O)cc3c12	HL-60(TB) leukemia	growth	34.3% (inactive)
CC(=O)N1Cc2ccccc2C(C)Cc2cc(Cl)ccc21 (configuration not stated)	HL-60(TB) leukemia	growth	111% (inactive)
CCn1cc(-c2cc(-c3ccc(Cl)cc3)nc(N)n2)c(-c2ccc(Br)cc2)n1	HL-60(TB) leukemia	growth	77.7% (inactive)
Cc1nn2c(/C=C3/C(=O)Nc4cc(Cl)ccc43)c(-c3ccccc3)nc2s1	HL-60(TB) leukemia	growth	32.2% (inactive)
C[C@@H](c1ccc2c(c1)[nH]c1ccc(Cl)cc12)c1nc2ccc(Cl)cc2[nH]1	HL-60(TB) leukemia	growth	0.0537% (active)
CCNC(=O)Oc1ccc(/C(=C(/CC)Cc2ccccc2)c2ccc(OCCN3CCCC3)cc2)cc1	HL-60(TB) leukemia	growth	69.2% (inactive)
c1cc(CNC23CC4CC(CC(C4)C2)C3)cc(C[N+](Cc2cccc(CNC34CC5CC(CC(C5)C3)C4)c2)(Cc2cccc(CNC34CC5CC(CC(C5)C3)C4)c2)Cc2cccc(CNC34CC5CC(CC(C5)C3)C4)c2)c1 (configuration not stated)	HL-60(TB) leukemia	growth	-29.5% [42 µM] (active)
Cc1cc(=O)[nH]c(N/N=C/c2ccccc2O)n1	HL-60(TB) leukemia	growth	71.3% (inactive)
CC(C)(C)CC(C)(C)Cc1ccc(OCCOCC[N+](C)(C)Cc2ccccc2)cc1	HL-60(TB) leukemia	growth	-52.6% (active)
COc1cc2nnn3c4ncccc4c(N=O)c3c2cc1OC	HL-60(TB) leukemia	growth	-31.5% (active)
Cc1nc2sc(C(=O)Nc3cccc4ncccc34)c(N)c2cc1C(C)O (configuration not stated)	HL-60(TB) leukemia	growth	33% (inactive)
Cc1cc(NCc2cc(Nc3ccnc4cc(Cl)ccc34)ccc2F)nc(N2CCOCC2)n1	HL-60(TB) leukemia	growth	-52.7% (active)
CN(C)CCn1c(=O)c2ccccc2n2nc3ccccc3c12	HL-60(TB) leukemia	growth	70.3% (inactive)
Cc1c2ccncc2c(C)c2c1c1cc(CO)ccc1n2C	HL-60(TB) leukemia	growth	19.2% (inactive)
C=C1C(=O)O[C@H]2[C@H]1CC/C(Cn1cc(-c3ccccc3C(F)(F)F)nn1)=C\CC[C@@]1(C)O[C@@H]21	HL-60(TB) leukemia	growth	-13.3% (active)
CC1=C(C(=O)Nc2nc(-c3ccc(Cl)cc3)cs2)[C@H](c2ccc(O)cc2)NC(=O)N1	HL-60(TB) leukemia	growth	98.7% (inactive)
